Field: IC50. Provide a value for each of the molecules that follow.
- studyTarget: human SLC6A19 and TMEM27 (Homo sapiens)
- Construct: expressed in transfected cells
- Sequence (Q695T7 1-634): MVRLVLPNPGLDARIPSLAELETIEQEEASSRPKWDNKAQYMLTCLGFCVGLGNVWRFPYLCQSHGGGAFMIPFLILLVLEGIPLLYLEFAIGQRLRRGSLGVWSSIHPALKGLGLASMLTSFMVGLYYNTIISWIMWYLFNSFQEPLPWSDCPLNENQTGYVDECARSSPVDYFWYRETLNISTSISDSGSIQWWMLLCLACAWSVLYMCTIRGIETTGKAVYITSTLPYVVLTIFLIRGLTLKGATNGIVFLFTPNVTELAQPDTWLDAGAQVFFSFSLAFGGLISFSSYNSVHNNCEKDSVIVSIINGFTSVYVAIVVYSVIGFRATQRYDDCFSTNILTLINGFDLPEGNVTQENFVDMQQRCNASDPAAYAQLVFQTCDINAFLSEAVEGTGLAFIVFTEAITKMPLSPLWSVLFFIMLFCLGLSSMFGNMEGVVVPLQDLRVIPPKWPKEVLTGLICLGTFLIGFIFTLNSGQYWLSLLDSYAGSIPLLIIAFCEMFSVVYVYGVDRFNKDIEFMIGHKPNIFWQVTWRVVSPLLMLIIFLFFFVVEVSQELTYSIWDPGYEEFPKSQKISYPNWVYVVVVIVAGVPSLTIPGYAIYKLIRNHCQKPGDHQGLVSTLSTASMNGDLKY
- Sequence (Q9HBJ8 15-222 partner): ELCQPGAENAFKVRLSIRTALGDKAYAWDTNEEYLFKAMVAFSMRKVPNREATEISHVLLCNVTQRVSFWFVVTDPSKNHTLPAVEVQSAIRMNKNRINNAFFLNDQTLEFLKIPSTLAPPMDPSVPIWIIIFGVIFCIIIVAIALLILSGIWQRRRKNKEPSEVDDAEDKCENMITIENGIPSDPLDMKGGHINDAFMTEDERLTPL
- runDescription: Radiolabelled (3H) leucine uptake in CHO cells with doxycycline-inducible expression of human SLC6A19 and TMEM27 (Example B-1)
- Type: cell-based
- conditionContext: CHO cells with doxycycline-inducible expression of human SLC6A19 and TMEM27, read-out: SLC6A19_Radioligand Uptake Assay IC50
One number for each entry, in nM.

CNC(=O)NCc1cc2cc(Cl)c(OCc3cscn3)cc2[nH]1	130

Record IC50 per entry; entries follow.
1. Cc1coc(COc2cc3[nH]c(CNC(=O)N4CCCC4)cc3cc2Cl)n1
2. C[C@H](O)C(=O)NCc1cc2cc(Cl)c(OCc3cscn3)cc2[nH]1
3. Cc1cc(COc2cc3[nH]c(CNC(=O)N4CC(F)(F)C4)cc3cc2Cl)on1
4. CC1(C(=O)NCc2cc3ccc(OCc4cc(C(F)F)on4)cc3[nH]2)CC1
5. COCC1(C(=O)NCc2cc3cc(Cl)c(OCc4cscn4)cc3[nH]2)CC1
6. Cn1ncc(COc2cc3[nH]c(CNC(=O)C4CC4)cc3cc2F)n1
7. C[C@@H]1CCN1C(=O)NCc1cc2cc(Cl)c(OCc3cscn3)cc2[nH]1

1: 351; 2: 322; 3: 486; 4: 421; 5: 383; 6: 566; 7: 286

Field: IC50. Fill in for each record below.
1. CC1CCCN1C(=O)NCc1cc2cc(F)c(OCc3ccon3)cc2[nH]1 (stereo not drawn)
2. Cc1cc(COc2cc3[nH]c(CNC(=O)[C@H]4C[C@H](O)C4)cc3cc2Cl)on1
3. Cc1cc(COc2cc3[nH]c(CNC(=O)CC(F)(F)F)cc3cc2Cl)on1
4. COc1cc2cc(CNC(=O)C3(C)CC3)[nH]c2cc1CCn1cccn1
5. O=C(NCc1cc2cc(OC(F)(F)F)c(OCc3ccon3)cc2[nH]1)N1CCC1
6. CCC(=O)NCc1cc2cc(Cl)c(OCc3cc(C)on3)cc2[nH]1
7. CC(=O)NCc1cc2cc(F)c(OCc3coc(C)n3)cc2[nH]1
8. Cc1cc(COc2cc3[nH]c(CNC(=O)C4(C)COC4)cc3cc2Cl)on1

[870, 628, 174, 260, 379, 70, 2990, 567]
